Test system: barnyardgrass (Echinochloa crus-galli)
run-description: Test A postemergence, barnyardgrass
Format: in vivo
condition-info: 125 g ai/ha, 0 to 100 scale, 0 no effect, 100 complete control
property: Plant response rating, Barnyardgrass
Form field (numeric): enter value without unit.

Worked cases, answers included:
Item under review: CC(=O)Oc1c(Cl)nn(C)c(=O)c1-c1c2ccccc2cc2ccccc12 . Reported Plant response rating, Barnyardgrass?
10

Also check C1COCCN1.Cn1nc(Cl)c(O)c(-c2c3ccccc3cc3ccccc23)c1=O
0

Same question for Cc1nn(C)c(=O)c(-c2c3ccccc3cc3ccccc23)c1O please.
50

Further, for Cn1nc(Cl)c(O)c(-c2c3ccccc3c(Cl)c3ccccc23)c1=O ?
20

New cases:
// returns reported Plant response rating, Barnyardgrass for input Cn1nc(Cl)c(O)c(-c2c3ccccc3cc3ccccc23)c1=O
20

Entry to check: Cc1c2ccccc2c(-c2c(O)c(Cl)nn(C)c2=O)c2ccccc12
30

Okay, and Cn1nc(Cl)c(O)c(-c2c3ccccc3c(Br)c3ccccc23)c1=O ?
60

---

System: ryegrass, Italian (Italian ryegrass, Lolium multiflorum)
run-description: Test A preemergence, ryegrass, Italian
Format: in vivo
condition-info: 31 g ai/ha, 0 to 100 scale
property: Plant response rating, Ryegrass, Italian

Below, 2 compounds whose answers are already recorded.
So what's the measured Plant response rating, Ryegrass, Italian for this one? Cc1nn(C)c(=O)c(-c2c3ccccc3cc3ccccc23)c1O
10

// next record Cn1nc(Cl)c(O)c(-c2c3ccccc3c(Cl)c3ccccc23)c1=O
20

Further cases:
What value of Plant response rating, Ryegrass, Italian has been reported for the following compound? Cn1nc(Cl)c(O)c(-c2c3ccccc3c(Br)c3ccccc23)c1=O
20

What do you have for Cc1c2ccccc2c(-c2c(O)c(Cl)nn(C)c2=O)c2ccccc12 ?
0

Please do the same for Cn1nc(Cl)c(O)c(-c2c3ccccc3cc3ccccc23)c1=O as well.
20

Lookup C1COCCN1.Cn1nc(Cl)c(O)c(-c2c3ccccc3cc3ccccc23)c1=O
0

Next record, please: CC(=O)Oc1c(Cl)nn(C)c(=O)c1-c1c2ccccc2cc2ccccc12
30

---

System: barnyardgrass (Echinochloa crus-galli)
run-description: Test B flooded paddy test, barnyardgrass
Assay type: in vivo
condition-info: Flood, 250 g ai/ha; scale of 0 to 100, 0 no effect, 100 complete control
property: Plant response rating, Barnyardgrass
The answer should be written as a number, with no unit following it.

Answered examples (5):
Tell me the measured Plant response rating, Barnyardgrass of Cn1nc(Cl)c(O)c(-c2c3ccccc3c(Cl)c3ccccc23)c1=O [Compound 2] , please.
0

Entry CC(=O)Oc1c(Cl)nn(C)c(=O)c1-c1c2ccccc2cc2ccccc12 [Compound 6] please
0

Continue with Cc1c2ccccc2c(-c2c(O)c(Cl)nn(C)c2=O)c2ccccc12 [Compound 5]
0

Moving on to C1COCCN1.Cn1nc(Cl)c(O)c(-c2c3ccccc3cc3ccccc23)c1=O [Compound 7]
0

Entry to check: Cn1nc(Cl)c(O)c(-c2c3ccccc3cc3ccccc23)c1=O [Compound 1]
20

More entries:
Param item = Cc1nn(C)c(=O)c(-c2c3ccccc3cc3ccccc23)c1O [Compound 8] ; retrieve measured Plant response rating, Barnyardgrass.
15

---

System: corn (Zea mays)
run-description: Test A postemergence, corn
Type: in vivo
condition-info: 125 g ai/ha, 0 to 100 scale
property: Plant response rating, Corn

In the examples that follow, each entry is paired with its recorded Plant response rating, Corn.
Give the reported Plant response rating, Corn for Cn1nc(Cl)c(O)c(-c2c3ccccc3c(Cl)c3ccccc23)c1=O (system: corn (Zea mays)).
0

Next: C1COCCN1.Cn1nc(Cl)c(O)c(-c2c3ccccc3cc3ccccc23)c1=O
10

Would you mind doing Cn1nc(Cl)c(O)c(-c2c3ccccc3cc3ccccc23)c1=O as well?
0

Next:
Lookup: Plant response rating, Corn / corn (Zea mays) / Cn1nc(Cl)c(O)c(-c2c3ccccc3c(Br)c3ccccc23)c1=O
10

Also, Cc1c2ccccc2c(-c2c(O)c(Cl)nn(C)c2=O)c2ccccc12 please.
20

Request: Cc1nn(C)c(=O)c(-c2c3ccccc3cc3ccccc23)c1O
10

Repeat for the following compound: CC(=O)Oc1c(Cl)nn(C)c(=O)c1-c1c2ccccc2cc2ccccc12
0

---

Tested on: ryegrass, Italian (Italian ryegrass, Lolium multiflorum)
run-description: Test A postemergence, ryegrass, Italian
Assay type: in vivo
condition-info: 31 g ai/ha, 0 to 100 scale
Catalogue of Plant response rating, Ryegrass, Italian values
Answer with the value's number alone.

Name the recorded Plant response rating, Ryegrass, Italian for Cn1nc(Cl)c(O)c(-c2c3ccccc3c(Br)c3ccccc23)c1=O .
40

---

System: ragweed (common ragweed, Ambrosia elation)
run-description: Test A postemergence, ragweed
Assay type: in vivo
condition-info: 31 g ai/ha, 0 to 100 scale
Plant response rating, Ragweed reference

Quick one: Plant response rating, Ragweed for Cn1nc(Cl)c(O)c(-c2c3ccccc3cc3ccccc23)c1=O ?
80

Next: CC(=O)Oc1c(Cl)nn(C)c(=O)c1-c1c2ccccc2cc2ccccc12
90

Ok, now C1COCCN1.Cn1nc(Cl)c(O)c(-c2c3ccccc3cc3ccccc23)c1=O
90

Cool, now Cc1c2ccccc2c(-c2c(O)c(Cl)nn(C)c2=O)c2ccccc12
10

// repeat for Cn1nc(Cl)c(O)c(-c2c3ccccc3c(Br)c3ccccc23)c1=O and report
80

Let us now turn to Cn1nc(Cl)c(O)c(-c2c3ccccc3c(Cl)c3ccccc23)c1=O
90

Same question, Cc1nn(C)c(=O)c(-c2c3ccccc3cc3ccccc23)c1O this time
90

---

System: barnyardgrass (Echinochloa crus-galli)
run-description: Test A preemergence, barnyardgrass
Format: in vivo
condition-info: 125 g ai/ha, 0 to 100 scale
Reported Plant response rating, Barnyardgrass values are given for each entry in this list.
Number, no unit, nothing else.

# count of solved cases: 6
// Plant response rating, Barnyardgrass lookup, key: Cn1nc(Cl)c(O)c(-c2c3ccccc3cc3ccccc23)c1=O
0

Would you mind doing Cn1nc(Cl)c(O)c(-c2c3ccccc3c(Br)c3ccccc23)c1=O as well?
50

Entry Cc1nn(C)c(=O)c(-c2c3ccccc3cc3ccccc23)c1O please
10

Another compound to look at: CC(=O)Oc1c(Cl)nn(C)c(=O)c1-c1c2ccccc2cc2ccccc12
0

Input Cc1c2ccccc2c(-c2c(O)c(Cl)nn(C)c2=O)c2ccccc12
0

And for Cn1nc(Cl)c(O)c(-c2c3ccccc3c(Cl)c3ccccc23)c1=O ?
0

Let us move to another entry and its Plant response rating, Barnyardgrass.
I would be grateful if you could share the reported Plant response rating, Barnyardgrass for C1COCCN1.Cn1nc(Cl)c(O)c(-c2c3ccccc3cc3ccccc23)c1=O .
0

---

Tested on: galium (catchweed bedstraw, Galium aparine)
run-description: Test A postemergence, galium
Format: in vivo
condition-info: 125 g ai/ha, 0 to 100 scale
Known Plant response rating, Galium of a selection of compounds
Enter a number only.

Dear colleague, I am looking for the recorded Plant response rating, Galium of the following compound: Cc1c2ccccc2c(-c2c(O)c(Cl)nn(C)c2=O)c2ccccc12 [Compound 5]
70

Try the compound CC(=O)Oc1c(Cl)nn(C)c(=O)c1-c1c2ccccc2cc2ccccc12 [Compound 6]
100

***
Sample C1COCCN1.Cn1nc(Cl)c(O)c(-c2c3ccccc3cc3ccccc23)c1=O [Compound 7] — what was its Plant response rating, Galium?
100

Now consider Cn1nc(Cl)c(O)c(-c2c3ccccc3c(Br)c3ccccc23)c1=O [Compound 3] and answer again.
90

Then what about the compound Cn1nc(Cl)c(O)c(-c2c3ccccc3c(Cl)c3ccccc23)c1=O [Compound 2] ?
100

Repeat with Cn1nc(Cl)c(O)c(-c2c3ccccc3cc3ccccc23)c1=O [Compound 1]
90

Would you kindly repeat that for Cc1nn(C)c(=O)c(-c2c3ccccc3cc3ccccc23)c1O [Compound 8] ?
90

---

Measured Plant response rating, Kochia, listed per entry for reference.
Test system: kochia (Kochia scoparia)
run-description: Test A postemergence, kochia
Assay type: in vivo
condition-info: 31 g ai/ha, 0 to 100 scale
Could you keep your reply to the number by itself?

For Cc1c2ccccc2c(-c2c(O)c(Cl)nn(C)c2=O)c2ccccc12 , what is its reported Plant response rating, Kochia?
0

Similarly, Cc1nn(C)c(=O)c(-c2c3ccccc3cc3ccccc23)c1O ?
0

Item: Cn1nc(Cl)c(O)c(-c2c3ccccc3c(Br)c3ccccc23)c1=O
10

---
Return reported Plant response rating, Kochia; argument: C1COCCN1.Cn1nc(Cl)c(O)c(-c2c3ccccc3cc3ccccc23)c1=O
0

Also check Cn1nc(Cl)c(O)c(-c2c3ccccc3c(Cl)c3ccccc23)c1=O
10

What about Cn1nc(Cl)c(O)c(-c2c3ccccc3cc3ccccc23)c1=O ?
10

What would you report for CC(=O)Oc1c(Cl)nn(C)c(=O)c1-c1c2ccccc2cc2ccccc12 ?
0
